studySystem: human IRAK4 (Homo sapiens (Human))
Sequence (Q9NWZ3 whole entry): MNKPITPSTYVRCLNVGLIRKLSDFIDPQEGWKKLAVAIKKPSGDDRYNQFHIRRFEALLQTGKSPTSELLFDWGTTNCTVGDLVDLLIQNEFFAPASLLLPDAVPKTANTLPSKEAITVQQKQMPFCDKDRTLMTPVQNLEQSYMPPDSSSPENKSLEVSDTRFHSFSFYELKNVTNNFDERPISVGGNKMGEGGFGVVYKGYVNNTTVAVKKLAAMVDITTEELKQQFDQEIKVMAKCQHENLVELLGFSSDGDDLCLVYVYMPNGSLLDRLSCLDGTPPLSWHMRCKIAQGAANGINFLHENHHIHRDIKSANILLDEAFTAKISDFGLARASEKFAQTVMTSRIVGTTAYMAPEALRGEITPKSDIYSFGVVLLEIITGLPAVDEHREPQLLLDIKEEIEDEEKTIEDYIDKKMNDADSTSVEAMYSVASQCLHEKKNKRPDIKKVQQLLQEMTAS
assayNotes: IRAK4 kinase inhibition, Transcreener fluorescence polarization (ADP detection)
assayContext: recombinant full-length His6-IRAK4 1.25 nM; 125 μM ATP; 125 μM peptide; 90 min; Ki computed using ATP Km 642 μM
reportedMetric: log10(Ki) (log10 of the value in nM)
Note the log scale: values are log10 of Ki expressed in nM.

Worked examples, 8 compounds total:
{"compound": "CO[C@H](C)c1cccc(C(=O)Nc2cc3c(cc2N2CCOCC2)C(=O)N(C[C@@H](F)C(C)(C)O)C3)n1 (racemic) [Example 23]", "reportedMetric": "log10(Ki)", "measuredResult": 1.08}
{"compound": "CC(C)(O)[C@H](F)CN1Cc2cc(NC(=O)c3cnc4cccnn34)c(N3CCOCC3)cc2C1=O [Example 1]", "reportedMetric": "log10(Ki)", "measuredResult": 0.71}
{"compound": "Cc1ccc(-c2cc3c(cc2NC(=O)c2cnc(C)o2)CN(C[C@@H](F)C(C)(C)O)C3=O)nc1 [Example 14]", "reportedMetric": "log10(Ki)", "measuredResult": 0.62}
{"compound": "C[C@H](O)c1cccc(C(=O)Nc2cc3c(cc2N2CCOCC2)C(=O)N(C[C@@H](F)C(C)(C)O)C3)n1 (racemic) [Example 22]", "reportedMetric": "log10(Ki)", "measuredResult": 0.96}
{"compound": "Cn1ccn2ncc(C(=O)Nc3cc4c(cc3N3CCOCC3)C(=O)N(C[C@@H](F)C(C)(C)O)C4)c2c1=O [Example 26]", "reportedMetric": "log10(Ki)", "measuredResult": 1.67}
{"compound": "Cn1ncc(C(=O)Nc2cc3c(cc2N2CCOCC2)C(=O)N(C[C@@H](F)C(C)(C)O)C3)c1Cl [Example 33]", "reportedMetric": "log10(Ki)", "measuredResult": 1.71}
{"compound": "COc1cccc(C(=O)Nc2cc3c(cc2N(C)C)C(=O)N(C[C@@H](F)C(C)(C)O)C3)n1 [Example 19]", "reportedMetric": "log10(Ki)", "measuredResult": 0.18}
{"compound": "CC(C)(O)[C@H](F)CN1Cc2cc(NC(=O)c3coc(N4CCOCC4)n3)c(N3CCOCC3)cc2C1=O [Example 15]", "reportedMetric": "log10(Ki)", "measuredResult": 0.66}

Input line: GET /values?readout=log10(Ki)&item= CN(C)c1cc2c(cc1NC(=O)c1cccc(OC3CCNC3)n1)CN(C[C@@H](F)C(C)(C)O)C2=O (stereo partly drawn) [Example 13]
Output line: 0.76

Input line: GET /values?readout=log10(Ki)&item= C[C@@H](O)c1cccc(C(=O)Nc2cc3c(cc2N2CCOCC2)C(=O)N(C[C@@H](F)C(C)(C)O)C3)n1 (racemic) [Example 21]
Output line: 0.23

Input line: GET /values?readout=log10(Ki)&item= CCn1cccc(C(=O)Nc2cc3c(cc2N2CCOCC2)C(=O)N(C[C@@H](F)C(C)(C)O)C3)c1=O [Example 5]
Output line: 0.75

Input line: GET /values?readout=log10(Ki)&item= CC(C)(O)[C@H](F)CN1Cc2cc(NC(=O)c3cccc4[nH]cnc34)c(N3CCOCC3)cc2C1=O [Example 32]
Output line: 0.04
